target: human Orexin 1 receptor (Homo sapiens); construct: stably expressing the full-length human Orexin 1 receptor; expressed in transfected cells; host or cells: CHO-K1 (CHO-K1/hOx1); experiment: Assay A: in vitro testing of OX1R potency, OX1R IP1; format: cell-based; conditions: 50 nM Orexin A; Table 3; read-out: Assay A OX1R Kb [nM] (Orexin A concentration)
Sequence (O43613 whole entry): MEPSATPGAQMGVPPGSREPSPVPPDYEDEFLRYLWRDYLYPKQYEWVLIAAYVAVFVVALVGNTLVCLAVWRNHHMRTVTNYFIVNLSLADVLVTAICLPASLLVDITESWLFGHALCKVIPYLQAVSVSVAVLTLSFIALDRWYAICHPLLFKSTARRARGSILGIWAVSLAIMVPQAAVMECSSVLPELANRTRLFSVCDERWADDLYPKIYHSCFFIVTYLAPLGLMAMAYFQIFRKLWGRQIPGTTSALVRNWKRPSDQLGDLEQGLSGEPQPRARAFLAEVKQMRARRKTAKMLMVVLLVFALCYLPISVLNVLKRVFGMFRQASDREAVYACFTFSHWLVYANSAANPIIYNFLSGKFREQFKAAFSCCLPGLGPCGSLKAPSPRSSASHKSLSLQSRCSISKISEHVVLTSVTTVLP
measuredEndpoint: Kb (nM)
Write the number in nM without appending the unit.

Give human Orexin 1 receptor (Homo sapiens) Kb for CCN(C(=O)c1ccc(C)cc1-n1nccn1)[C@@H](C)COc1cnc(C(F)(F)F)cn1 [Example 10]
0.44

Try CCN(C(=O)c1cccc(F)c1-n1nccn1)[C@@H](C)COc1cnc(C(F)(F)F)cn1 [Example 22] next.
2.1

Now consider CCN(C(=O)c1cc(OC)ccc1-n1nccn1)[C@@H](C)COc1cnc(C(F)(F)F)cn1 [Example 8] .
0.8

Now the same for CCN(C(=O)c1ccc(OC)cc1-n1nccn1)[C@@H](C)COc1cnc(C(F)(F)F)cn1 [Example 18]
1.8

Try the compound CCN(C(=O)c1cccc(F)c1-c1ncccn1)[C@@H](C)COc1cnc(C(F)(F)F)cn1 [Example 29]
0.51

Do the same for CCN(C(=O)c1ccc(Cl)cc1-n1nccn1)[C@@H](C)COc1cnc(C(F)(F)F)cn1 [Example 24] please
1

Same thing, different compound: CC[C@@H](CNc1cnc(C(F)(F)F)cn1)N(CC)C(=O)c1nc(C)ccc1-n1nccn1 [Ex 70 in WO2016/ 034882]
0.14

Now the compound CCN(C(=O)c1cccc(C)c1-c1nnc(C)o1)[C@@H](C)COc1cnc(C(F)(F)F)cn1 [Example 15]
2.3

Next: CCN(C(=O)c1ccccc1-c1ncccn1)[C@@H](C)COc1cnc(C(F)(F)F)cn1 [Example 30]
0.63
